target: His-tagged canine IL-31 (interleukin 31) recombinant protein (canine); assay: BLI (Gator), biotinylated antibody on streptavidin probe, canine IL-31 as analyte
Readout label: koff

# Binder, koff
rows = [
    ("6465-H2K3-canIgGB (antibody, V domains shown) VH: EVQLVESGGDLVKPGGSLRLSCVASGYSFTNYYLYWVRQAPGKGLQWLGELNPRNGGTNLNAKFKTRFTISVDKAKNTAYLQMNSLRAEDTAVYYCTRGGTTVVVRDVMDFWGQGTLVTVSS VL: DIVMTQTPLSLSVSPGEPASISCRASESVDSYGNSFMHWYRQKPGQSPQLLIYRASNLESGVPDRFSGSGSGTDFTLRISRVEADDAGVYYCQQSNEDPYTFGQGTKLEIKR", "0.001 s⁻¹"),
]

Next:
Query: koff; subject: B2-H3K1-canIgGB (antibody, V domains shown) VH: EVQLVESGGDLVKPGGSLRLSCVASGFTFSDAWMDWVRQAPGKGLQWVAEIRSRAESHATYYAESVKGRFTISRDDAKNTVYLQMNSLRAEDTAVYYCTPASTMITTGWFAYWGQGTLVTVSS VL: EIVMTQTPLSLAVTPGELATISCRASQNISVYLHWYLQKPGQTPRVLIKYVSQSISGVSDRFSGSGSGSDFTLKISRVEAEDVGVYYCQNGHSFPYTFGQGTKLEIKR
0.00114 s⁻¹
